test: Study-1 Part-B multiple ascending dose pharmacokinetics (plasma and urine); format: in vivo, human; settings: human, plasma, oral; Study-1 Part-B, 8 mg, Day 1; geo mean (GeoCV%)
recorded.endpoint: Cmax (ng/mL)
Answers are plain numbers, in ng/mL.

Entry [O-][n+]1cccc(-c2nc3c(Cl)cccc3cc2[C@@H](Nc2ncnc3cccnc23)C(F)(F)F)c1 ; Cmax = 201

---

assay: Study-1 Part-A single ascending dose pharmacokinetics (plasma and urine); type: in vivo, human; conditions: human, plasma, oral, 15 mg, Study-1 Part-A, single dose 15 mg fasted; geo mean (GeoCV%)
recorded.endpoint: AUC(0-t) (ng·h/mL)
One number for each entry, in ng·h/mL.

Entry [O-][n+]1cccc(-c2nc3c(Cl)cccc3cc2[C@@H](Nc2ncnc3cccnc23)C(F)(F)F)c1 ; AUC(0-t) = 7000
